Overview of recorded inhibition at 100 µM for various compounds
target or test system: SARS-CoV-2 3CL Protease (Severe acute respiratory syndrome coronavirus 2, UniProt P0DTD1)
assay procedure: biochemical
applied conditions: 100 µM concentration, FRET assay; read-out: % inhibition
The figure you give is taken to be in %; do not add the unit.

Before answering, review these 3 worked examples.
{"columns": ["compound", "target or test system", "display unit", "experimental value"],
 "data": [
  ["C[C@@H]1O[C@@H](O[C@@H]2[C@@H](O)[C@H](OCCc3ccc(O)c(O)c3)O[C@H](CO)[C@H]2OC(=O)/C=C/c2ccc(O)c(O)c2)[C@H](O)[C@H](O)[C@H]1O [Compound 1, Acteoside]", "SARS-CoV-2 3CL Protease (Severe acute respiratory syndrome coronavirus 2, UniProt P0DTD1)", "%", 75.8],
  ["O=c1cc(-c2ccc(O)cc2)oc2cc(OC3O[C@H](CO)[C@@H](O)[C@H](O)[C@H]3O)cc(O)c12 (stereo partly drawn) [Compound 6, Apigenin-7-O-β-D-glucoside]", "SARS-CoV-2 3CL Protease (Severe acute respiratory syndrome coronavirus 2, UniProt P0DTD1)", "%", 83.1],
  ["CC1=CC(=O)C(C(C)C)=CC1=O", "SARS-CoV-2 3CL Protease (Severe acute respiratory syndrome coronavirus 2, UniProt P0DTD1)", "%", 63]
]}

# input Quick one: inhibition at 100 µM of COc1ccc(-c2cc(=O)c3c(O)cc(O)cc3o2)cc1Oc1ccc(-c2cc(=O)c3c(O)cc(O)cc3o2)cc1 ?
# output 53

# input Would you mind telling me what inhibition at 100 µM value was observed for O=C(c1cc(O)cc(O)c1)c1c(O)cc(O)cc1O [Compound 3, 2,3′,4,5′,6-Pentahydroxy benzophenone] ?
# output 87.9

====

target or test system: SARS-CoV-2 3CL Protease (Severe acute respiratory syndrome coronavirus 2, UniProt P0DTD1)
assay procedure: biochemical
attribute measured: IC50 (nM)
The response must be a number in nM with no trailing unit.

{"columns": ["compound", "display unit", "IC50"],
 "data": [
  ["C[C@@H]1O[C@@H](O[C@@H]2[C@@H](O)[C@H](OCCc3ccc(O)c(O)c3)O[C@H](CO)[C@H]2OC(=O)/C=C/c2ccc(O)c(O)c2)[C@H](O)[C@H](O)[C@H]1O [Compound 1, Acteoside]", "nM", 43]
]}

Pending compound:
# input Given O=C1C[C@@H](c2ccc(O)cc2)Oc2cc(O)cc(O)c21 , state its recorded IC50.
# output 92

====

assay procedure: Cytotoxicity assay (MTT)
Format: cell-based
applied conditions: African green monkey, VERO-E6 cells
attribute measured: CC50 at 24 h

# input Record request: CC50 at 24 h value, item O=C1C[C@@H](c2ccc(O)cc2)Oc2cc(O)cc(O)c21
# output 179 µg/mL

====

target or test system: SARS-CoV-2 3CL Protease (Severe acute respiratory syndrome coronavirus 2)
assay procedure: biochemical
applied conditions: SARS COV-2 viral main protease, FRET assay; read-out: IC50
attribute measured: IC50 (nM)
Express the result in nM but write the number alone.

{"columns": ["compound", "display unit", "IC50"],
 "data": [
  ["O=c1cc(-c2ccc(O)cc2)oc2cc(OC3O[C@H](CO)[C@@H](O)[C@H](O)[C@H]3O)cc(O)c12 (stereo partly drawn) [Compound 6, Apigenin-7-O-β-D-glucoside]", "nM", 74]
]}

# input May I ask what IC50 has been recorded for O=C(c1cc(O)cc(O)c1)c1c(O)cc(O)cc1O [Compound 3, 2,3′,4,5′,6-Pentahydroxy benzophenone] ?
# output 102
